The entries below come with measured Emax values attached.
test_target: Protein cereblon/Interleukin-1 receptor-associated kinase 4 (Homo sapiens) (UniProt Q9NWZ3+Q96SW2)
Sequence (Q96SW2 whole entry, looked up): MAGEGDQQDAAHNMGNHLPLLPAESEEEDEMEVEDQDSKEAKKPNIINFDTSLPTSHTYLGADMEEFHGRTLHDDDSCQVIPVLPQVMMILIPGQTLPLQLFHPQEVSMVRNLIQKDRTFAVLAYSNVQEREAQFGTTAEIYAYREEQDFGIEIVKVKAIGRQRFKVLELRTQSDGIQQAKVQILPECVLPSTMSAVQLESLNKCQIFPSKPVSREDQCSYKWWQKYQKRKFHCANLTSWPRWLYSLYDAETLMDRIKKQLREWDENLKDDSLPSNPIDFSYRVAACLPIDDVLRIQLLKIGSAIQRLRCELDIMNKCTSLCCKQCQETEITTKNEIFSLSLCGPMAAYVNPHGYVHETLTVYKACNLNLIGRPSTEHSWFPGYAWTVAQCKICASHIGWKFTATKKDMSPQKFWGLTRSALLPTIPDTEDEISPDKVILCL
Sequence (Q9NWZ3 whole entry, looked up): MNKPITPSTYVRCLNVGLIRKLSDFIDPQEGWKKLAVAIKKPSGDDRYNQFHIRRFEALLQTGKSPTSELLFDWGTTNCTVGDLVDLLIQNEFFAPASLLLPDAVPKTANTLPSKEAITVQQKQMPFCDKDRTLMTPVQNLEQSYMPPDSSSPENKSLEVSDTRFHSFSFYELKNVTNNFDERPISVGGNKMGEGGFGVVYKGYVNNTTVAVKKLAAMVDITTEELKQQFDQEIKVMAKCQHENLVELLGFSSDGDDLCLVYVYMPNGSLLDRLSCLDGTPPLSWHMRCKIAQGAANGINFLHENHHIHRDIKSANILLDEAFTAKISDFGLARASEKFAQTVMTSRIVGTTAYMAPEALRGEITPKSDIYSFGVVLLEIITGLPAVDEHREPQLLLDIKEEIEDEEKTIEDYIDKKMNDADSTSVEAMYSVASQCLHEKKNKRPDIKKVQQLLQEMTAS
procedure_text: Binding affinity to CRBN/IRAK4 in human PBMC cells assessed as inhibition of LPS-stimulated IL-6 production by measuring maximal efficacy incubated for 24 hrs by MSD analysis relative to control
Format: cell-based
attribute_measured: Emax (%)

{"columns": ["compound", "bound_type", "reported_value"],
 "data": [
  ["O=C1CCC(N2Cc3ccc(N4CC(F)(CN5CCC(N6Cc7cc(NC(=O)c8cnn9cccnc89)c(N8CCC(N9CCC9)CC8)cc7C6=O)CC5)C4)cc3C2=O)C(=O)N1 (centres undefined)", "=", 80],
  ["O=C1CCC(N2Cc3cc(N4CCC(CN5CCC(n6cc7cc(NC(=O)c8cnn9cccnc89)c(OCC(F)F)cc7n6)CC5)CC4)ccc3C2=O)C(=O)N1 (centres undefined)", "=", 70],
  ["CC(C)Oc1cc2c(cc1NC(=O)c1cnn3cccnc13)CN(C1CCN(CC3(F)CN(c4ccc5c(c4F)CN(C4CCC(=O)NC4=O)C5=O)C3)CC1)C2=O (centres undefined)", ">", 90],
  ["O=C1CCC(N2Cc3ccc(N4CCC(CN5CCC(n6cc7cc(NC(=O)c8cnn9cccnc89)c(OCC8CC8)cc7n6)CC5)CC4)cc3C2=O)C(=O)N1 (centres undefined)", "=", 80]
]}

---

test_target: Protein cereblon/Interleukin-1 receptor-associated kinase 4 (Homo sapiens) (UniProt Q9NWZ3+Q96SW2)
procedure_text: Binding affinity to CRBN/IRAK4 in human PBMC cells assessed as inhibition of LPS-stimulated IL-6 production by measuring maximal efficacy incubated for 24 hrs by MSD analysis relative to control
Assay type: cell-based

{"columns": ["compound", "bound_type", "Emax [%]"],
 "data": [
  ["O=C1CCC(N2Cc3c(ccc(N4CCC(CN5CCC(n6cc7cc(NC(=O)c8cnn9cccnc89)c(N8CCN(CC(F)F)CC8)cc7n6)CC5)CC4)c3F)C2=O)C(=O)N1 (stereo not drawn)", "=", 80],
  ["CC(C)Oc1cc2c(cc1NC(=O)c1cnn3cccnc13)CN(C1CCN(CC3CCN(c4ccc5c(c4)C(=O)N(C4CCC(=O)NC4=O)C5=O)CC3)CC1)C2=O (stereo not drawn)", "=", 80],
  ["O=C1CCC(N2Cc3ccc(N4CCC(CN5CCC(N6Cc7cc(NC(=O)c8cnn9cccnc89)c(N8CCC(N9CCC9)CC8)cc7C6=O)CC5)CC4)cc3C2=O)C(=O)N1 (stereo not drawn)", ">", 90]
]}

---

test_target: Protein cereblon/Interleukin-1 receptor-associated kinase 4 (Homo sapiens, UniProt Q96SW2+Q9NWZ3)
Sequence (Q9NWZ3 whole entry): as the sequence (Q9NWZ3 whole entry, looked up) above
Sequence (Q96SW2 whole entry): as the sequence (Q96SW2 whole entry, looked up) above
procedure_text: Binding affinity to CRBN/IRAK4 in human PBMC cells assessed as inhibition of LPS-stimulated IL-6 production incubated for 24 hrs by MSD analysis
Format: cell-based
The entries below come with measured IC50 values attached.
attribute_measured: IC50

{"columns": ["molecule", "attribute_measured", "reported_value"],
 "data": [
  ["CC(C)Oc1cc2c(cc1NC(=O)c1cnn3cccnc13)CN(C1CCN(CC3CCN(c4ccc5c(c4)C(=O)N(C4CCC(=O)NC4=O)C5=O)CC3)CC1)C2=O (stereo not given)", "IC50", "< 10 nM"],
  ["O=C1CCC(N2Cc3c(ccc(N4CCC(CN5CCC(n6cc7cc(NC(=O)c8cnn9cccnc89)c(N8CCN(CC(F)F)CC8)cc7n6)CC5)CC4)c3F)C2=O)C(=O)N1 (stereo not given)", "IC50", "< 10 nM"],
  ["O=C1CCC(N2Cc3cc(N4CCC(CN5CCC(n6cc7cc(NC(=O)c8cnn9cccnc89)c(OCC(F)F)cc7n6)CC5)CC4)ccc3C2=O)C(=O)N1 (stereo not given)", "IC50", "≥ 10 nM"],
  ["CC(C)Oc1cc2c(cc1NC(=O)c1cnn3cccnc13)CN(C1CCN(C(C)(C)C3CN(c4ccc5c(c4)C(=O)N(C4CCC(=O)NC4=O)C5=O)C3)CC1)C2=O (stereo not given)", "IC50", "≥ 10 nM"],
  ["O=C1CCC(N2Cc3ccc(N4CCC(CN5CCC(N6Cc7cc(NC(=O)c8cnn9cccnc89)c(N8CCC(N9CCC9)CC8)cc7C6=O)CC5)CC4)cc3C2=O)C(=O)N1 (stereo not given)", "IC50", "< 10 nM"],
  ["O=C1CCC(N2Cc3cc(N4CCC(CN5CCC(N6Cc7cc(NC(=O)c8cnn9cccnc89)c(N8CCC(N9CCC9)CC8)cc7C6=O)CC5)CC4)ccc3C2=O)C(=O)N1 (stereo not given)", "IC50", "< 10 nM"],
  ["O=C1CCC(N2Cc3ccc(N4CCC(CN5CCC(n6cc7cc(NC(=O)c8cnn9cccnc89)c(OCC8CC8)cc7n6)CC5)CC4)cc3C2=O)C(=O)N1 (stereo not given)", "IC50", "< 10 nM"],
  ["CC(C)Oc1cc2c(cc1NC(=O)c1cnn3cccnc13)CN(C1CCN(CC3(F)CN(c4ccc5c(c4F)CN(C4CCC(=O)NC4=O)C5=O)C3)CC1)C2=O (stereo not given)", "IC50", "≥ 10 nM"],
  ["O=C1CCC(N2Cc3ccc(N4CC(F)(CN5CCC(N6Cc7cc(NC(=O)c8cnn9cccnc89)c(N8CCC(N9CCC9)CC8)cc7C6=O)CC5)C4)cc3C2=O)C(=O)N1 (stereo not given)", "IC50", "< 10 nM"],
  ["O=C1CCC(N2C(=O)c3ccc(N4CCC(CN5CCC(N6Cc7cc(NC(=O)c8cnn9cccnc89)c(N8CCN(CC(F)F)CC8)cc7C6=O)CC5)CC4)cc3C2=O)C(=O)N1 (stereo not given)", "IC50", "≥ 10 nM"]
]}
